Values from PubChem BioAssay (EPA / NIEHS)

ASSAY PROTOCOL: CCTE_Harrill_HTTr_CellCount_MCF7: CCTE's Cell Proliferation Assessment for the High-Throughput Transcriptomics (HTTr) Platform, Harrill Lab (AID 2284012);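 further: count of Hoechst-stained nuclei per well by high-content imaging in MCF-7 cells; cells exposed to compound for six hours; intended direction is loss of nuclei count meaning fewer cells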
Results filed as inconclusive are left out. Activity calls are given as the source filed them. How the source made its calls: active means hit-call score of the fitted dose curve at least 0.9, where 1 is the maximum; inconclusive means response in the unintended direction; inactive means score below 0.9.
The reply should be one of these categories: T = active, F = inactive

Answered examples (5):
>  <COMPOUND>
CC(=O)[O][Hg][c]1ccccc1

>  <CLASS>
T

$$$$
>  <COMPOUND>
CCCCCCCCc1ccc(O)cc1

>  <CLASS>
F

$$$$
>  <COMPOUND>
CC1CCCCC1NC(=O)Nc1ccccc1 (configuration not stated)

>  <CLASS>
F

$$$$
>  <COMPOUND>
C[C@H]1CCCC(=O)CCC/C=C/c2cc(O)cc(O)c2C(=O)O1

>  <CLASS>
F

$$$$
>  <COMPOUND>
O=C(O)C(F)(F)C(F)(F)C(F)(F)C(F)(F)C(F)(F)C(F)(F)C(F)(F)C(F)(F)C(F)(F)C(F)(F)F

>  <CLASS>
F

$$$$

Prompt: Each compound tested received a call. Report the one for CC12CC1(C)C(=O)N(c1cc(Cl)cc(Cl)c1)C2=O (configuration not stated) .
Response: F

Prompt: For CCCCOCCOC(C)=O , which call appears in the assay record?
Response: F

Prompt: Outcome? Clc1ccc(C2(Cn3cncn3)CC(Br)CO2)c(Cl)c1 (configuration not stated)
Response: F

Prompt: Tell me the assay call for CC(C)CCCCCCOC(=O)c1ccccc1C(=O)OCCCCCCC(C)C please.
Response: F

Prompt: # fetch the recorded call for C=CC#N here
Response: F

Prompt: I would be grateful if you could indicate the recorded call for CC(C)OC(=O)Nc1ccccc1 .
Response: F

Prompt: Recorded test outcome, item CCCCCCCCCl
Response: F

Prompt: Give the logged outcome of this assay for the following compound: COc1ccc(C=O)cc1OC
Response: F

Prompt: Recorded call for C[C@H]1O[C@@H](O[C@H]2[C@@H](O)C[C@H](O[C@H]3[C@@H](O)C[C@H](O[C@H]4CC[C@@]5(C)[C@H](CC[C@@H]6[C@@H]5CC[C@]5(C)[C@@H](C7=CC(=O)OC7)CC[C@]65O)C4)O[C@@H]3C)O[C@@H]2C)C[C@H](O)[C@@H]1O ?
Response: F
